# Target Of Assay: PaThiL (P. aeruginosa thiamine monophosphate kinase, ThiL) (Pseudomonas aeruginosa, UniProt Q9HWX7)
# Sequence (Q9HWX7 1-322): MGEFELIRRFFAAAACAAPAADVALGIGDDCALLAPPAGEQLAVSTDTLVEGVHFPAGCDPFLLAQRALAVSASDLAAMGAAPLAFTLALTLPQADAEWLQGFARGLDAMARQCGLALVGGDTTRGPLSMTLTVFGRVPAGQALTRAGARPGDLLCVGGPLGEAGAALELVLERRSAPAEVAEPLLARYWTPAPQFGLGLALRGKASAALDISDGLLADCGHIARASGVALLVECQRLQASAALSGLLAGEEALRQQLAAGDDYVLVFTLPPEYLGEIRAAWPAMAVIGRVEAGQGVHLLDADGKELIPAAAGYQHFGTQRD
# Test Name: luminescent kinase assay
Parameter: pKi
Answer as the number alone; pKi is minus log10 of concentration in mol/L.

Ask | Tell me the measured pKi of O=C(O)Cc1c[nH]c2ccc(O)cc12 [5-hydroxyindolacetic acid] , please.
Reply | 3.94
